# Tested on: Puccinia recondita f. sp. tritici
# protocol-summary: Test I: wheat leaf rust on wheat seedlings, sprayed the day before inoculation, visual disease rating
# Type: in vivo
# settings: Puccinia recondita, 168 h; 200 ppm; 100 = 100% disease control, 0 = no control relative to controls
measured-endpoint: pest or weed control at 200 ppm (%)
# number only, unit % dropped from output

Query string: Consider the molecule "COc1cc(F)c(-c2c(Cl)nc(Br)n2-c2ccc(C(F)(F)F)nc2)c(F)c1" and give its measured pest or weed control at 200 ppm.
Result string: 100

Query string: Dear colleague, I am looking for the recorded pest or weed control at 200 ppm of the following molecule: "Fc1cc(F)c(-c2c(Cl)nc(Cl)n2-c2ccc(Cl)cc2)c(F)c1"
Result string: 100

Query string: Need pest or weed control at 200 ppm of "COc1cc(F)c(-c2c(Cl)nc(C)n2-c2ccc(C(F)(F)F)nc2)c(F)c1" , thanks.
Result string: 100

Query string: Any idea what its pest or weed control at 200 ppm is? The molecule is "N#Cc1nc(Cl)c(-c2c(F)ccc(F)c2F)n1-c1ccc(Cl)cc1"
Result string: 96

###

# Test system: Puccinia recondita f. sp. tritici
# protocol-summary: Test H: wheat leaf rust, test suspension sprayed after inoculation of wheat seedlings, visual disease rating
# Format: in vivo
# settings: 200 ppm; 100 = 100% disease control, 0 = no control relative to controls
I'd be grateful if you could share measured Test H disease control rating for these entries.
# unit: % | format: bare number

Query string: Give the measured Test H disease control rating of "Fc1ccc(-n2c(Br)nc(Cl)c2-c2ccc(Cl)c(F)c2)c(Cl)c1" .
Result string: 9

Query string: Recorded Test H disease control rating for "COc1ccc(-n2c(Br)nc(Br)c2-c2c(F)cccc2F)cn1" , please?
Result string: 100

Query string: Consider the compound "COc1cc(F)c(-c2c(Cl)nc(Cl)n2-c2ccc(OC(F)F)cc2)c(F)c1" and give its measured Test H disease control rating.
Result string: 97

Query string: Entry under review: "COc1cc(F)c(-c2c(Cl)nc(C)n2-c2cccc(OC(F)F)c2)c(F)c1" . Reported Test H disease control rating?
Result string: 100

Query string: // returns reported Test H disease control rating for input "Fc1cccc(F)c1-c1c(Cl)nc(Cl)n1-c1cccnc1Cl"
Result string: 100

Query string: Report Test H disease control rating for "COc1cc(F)c(-c2c(Cl)ncn2-c2ccc(OC(F)(F)F)cc2)c(F)c1" please.
Result string: 29

Query string: Requested read-out: Test H disease control rating. Entry: "Fc1cc(-n2c(Cl)nc(Br)c2-c2c(F)ccc(F)c2F)ccc1Cl"
Result string: 0

Query string: I am curious: what Test H disease control rating value has been reported for "COc1cc(F)c(-c2c(Cl)ncn2-c2cccc(Cl)c2)c(F)c1" ?
Result string: 0

Query string: Given the entry "COc1cc(F)c(-c2c(Cl)ncn2-c2ccc(OC(F)F)cc2)c(F)c1" , report its measured Test H disease control rating.
Result string: 43

Query string: Reported Test H disease control rating, compound "COc1ccc(F)c(-c2c(Br)nc(Br)n2-c2ccc(C)cc2)c1F" : ____
Result string: 0

Query string: I am curious: what Test H disease control rating value has been reported for "Fc1cccc(-n2c(Cl)nc(Cl)c2-c2c(F)cc(F)cc2F)c1" ?
Result string: 54

Query string: Which Test H disease control rating is listed for "COc1nn(C)c(-c2ccc(F)cc2Cl)c1-c1ccc(I)cc1" ?
Result string: 0

Query string: What does the record list as Test H disease control rating for "CCOc1ccc(F)c(-c2c(Cl)nc(C)n2-c2cccc(F)c2)c1F" ?
Result string: 0

Query string: Fill in: Test H disease control rating of "Cc1ccc(-n2c(Cl)nc(Cl)c2-c2c(F)ccc(C#N)c2F)cc1" is ___
Result string: 0

Query string: Please give the measured Test H disease control rating for this compound: "COc1ccc(-n2c(Cl)nc(Cl)c2-c2c(F)cccc2F)c(Cl)n1"
Result string: 100

Query string: What does the record list as Test H disease control rating for "COc1ccc(F)c(-c2c(Cl)nc(Cl)n2-c2ccc(Cl)cc2)c1Cl" ?
Result string: 0

Query string: GET /values?readout=Test H disease control rating&item= "COc1cc(F)c(-c2c(Cl)nc(Cl)n2-c2ccc(C(F)(F)F)nc2)c(F)c1"
Result string: 41

Query string: # input compound: "Fc1ccc(-n2c(Cl)nc(Br)c2-c2c(F)ccc(F)c2F)cc1" ; wanted: its Test H disease control rating
Result string: 18
